Every entry's value here was drawn from patent US10538583.

# reported pKd; entries follow
target: human ApoC3 (human); experiment: SPR pH 7.4
Sequence (chain, as listed by the source): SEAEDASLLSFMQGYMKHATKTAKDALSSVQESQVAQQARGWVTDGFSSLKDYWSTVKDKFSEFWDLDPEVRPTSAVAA
The scale used: pKd is minus the common logarithm of the concentration in molar units.

Fill in: pKd of mAb6 (antibody, V domains shown) VH: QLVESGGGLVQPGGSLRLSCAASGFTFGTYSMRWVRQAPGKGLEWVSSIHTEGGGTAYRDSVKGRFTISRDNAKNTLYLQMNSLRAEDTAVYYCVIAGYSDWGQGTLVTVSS VL: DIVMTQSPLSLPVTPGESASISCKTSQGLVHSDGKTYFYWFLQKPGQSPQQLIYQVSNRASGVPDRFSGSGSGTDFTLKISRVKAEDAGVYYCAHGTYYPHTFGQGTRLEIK is ___
10.22

Fill in: pKd of 5E5WT (5E5) IgG1 (antibody, V domains shown) VH: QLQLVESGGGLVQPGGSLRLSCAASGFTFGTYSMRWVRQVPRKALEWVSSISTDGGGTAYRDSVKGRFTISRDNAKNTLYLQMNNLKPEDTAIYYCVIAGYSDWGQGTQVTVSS VL: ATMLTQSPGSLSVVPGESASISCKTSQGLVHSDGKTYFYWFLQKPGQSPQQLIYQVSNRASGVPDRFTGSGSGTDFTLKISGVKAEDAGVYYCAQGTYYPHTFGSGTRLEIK is ___
10.29

Fill in: pKd of mAb8 (antibody, V domains shown) VH: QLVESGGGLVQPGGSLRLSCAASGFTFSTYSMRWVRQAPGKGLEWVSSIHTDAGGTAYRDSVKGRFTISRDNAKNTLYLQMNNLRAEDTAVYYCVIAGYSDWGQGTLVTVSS VL: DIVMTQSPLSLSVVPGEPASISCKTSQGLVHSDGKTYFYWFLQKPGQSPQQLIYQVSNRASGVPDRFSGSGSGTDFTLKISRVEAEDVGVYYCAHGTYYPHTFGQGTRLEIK is ___
9.99

Fill in: pKd of mAb10 (antibody, V domains shown) VH: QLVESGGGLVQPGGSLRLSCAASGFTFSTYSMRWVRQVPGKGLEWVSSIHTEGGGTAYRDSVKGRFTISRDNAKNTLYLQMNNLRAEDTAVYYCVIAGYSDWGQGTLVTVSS VL: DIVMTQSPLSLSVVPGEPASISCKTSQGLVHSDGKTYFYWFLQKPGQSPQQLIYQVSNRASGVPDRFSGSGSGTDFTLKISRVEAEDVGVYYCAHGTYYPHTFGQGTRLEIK is ___
10.02

Let's switch to this binder now.
Fill in: pKd of mAb18 (antibody, V domains shown) VH: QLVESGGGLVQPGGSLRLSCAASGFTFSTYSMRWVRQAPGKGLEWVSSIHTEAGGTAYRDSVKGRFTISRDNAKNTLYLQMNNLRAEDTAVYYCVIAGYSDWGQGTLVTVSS VL: DIVMTQSPLSLPVTPGEPASISCKTSQGLVHSGGKTYFYWFLQKPGQSPQQLIYQVSNRASGVPDRFTGSGSGTDFTLKISRVEAEDAGVYYCAHGTYYPHTFGQGTRLEIK is ___
8.88
